Target: T1, UNK ZnF1-3 (human, UniProt Q9C0B0 31-174)
T1 sequence: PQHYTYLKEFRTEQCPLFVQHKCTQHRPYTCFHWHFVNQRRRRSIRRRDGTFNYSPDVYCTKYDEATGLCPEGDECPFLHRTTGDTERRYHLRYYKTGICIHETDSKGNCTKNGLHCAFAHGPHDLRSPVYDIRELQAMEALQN
Experiment: nsRBNS (natural sequence RNA bind-n-seq); RBNS binding buffer (assumed for nsRBNS): 25 mM Tris pH 7.5, 150 mM KCl, 3 mM MgCl2, 0.01% Triton X-100, 500 ug/ml BSA, 20 U/ml SUPERase-In, 4 C; UNK is unkempt and MSI1 is Musashi-1; names of the RNAs are library labels; protein concentration not given here; high values mean tight binding
In all, about 24,000 sequences were measured (“enrichment r”: median about 0.99, highest 2% from about 3.7 on). The entries come from a sample that favours the highest values as a whole.
YES if binding signal is below 1 enrichment R. NO if not; exact matches included in NO.

Answered cases to consult:
{"BINDER": "chr1:163117127:163117128:-_ENSG00000143248_ENST00000313961|hu_mus|hu_hu_hu_mus_False|1_18 (ssRNA) RNA: GGGAGUUCUACAGUCCGACGAUCUGCUACAAAGGAUGUAACUCAACUCACAGGGCAACUUUUGGAAGCCUGACCAGAUGACUACUUGAUUAGCUCCUUAUAAAAUUCAGAGCGCACAAAGCGAGGCAGAGAAUCCUUUUCCAUCAACAGAGGAUUGAGCAUCA", "CATEGORY LABEL": "NO"}
{"BINDER": "55264158_55264526_802_CDS_ENSMUSG00000022185_ENSMUST00000148754|mouse|control|control (ssRNA) RNA: GGGAGUUCUACAGUCCGACGAUCGAUGGACCUCCGGGUUAAGGUAUCUCCUAAUGUUACUUUCUUUACUUCGUGCUCCACAGGUGGGGGCAAGGCAACCUCCACUGACACCUGGGGUGGCGCCGGCAGCUCGGCUUCAGGCUCCAACAGAGGAUUGAGCAUCA", "CATEGORY LABEL": "YES"}
{"BINDER": "37607701_37614754_715_CDS_ENSG00000102710_ENST00000475892|human|control|control (ssRNA) RNA: GGGAGUUCUACAGUCCGACGAUCGCUCUCAAGCAAAAGUUUGUCUUCCUGGGUCCAUUUGUGGUUAUCACUUGUUAUUGAAUGUACAUCACAAAUUAAAGUCUGCAUUGUUGGACGUAAGAGAAUGUGCCGACUUUGGUAACCCAACAGAGGAUUGAGCAUCA", "CATEGORY LABEL": "YES"}
{"BINDER": "chr9:14812383:14812384:-_ENSMUSG00000031934_ENSMUST00000164273|mus_mus|FALSE|FALSE (ssRNA) RNA: GGGAGUUCUACAGUCCGACGAUCAUAGCUCAAGUAGAUACAUGCCAACAGUAUAACCACAAAUGUCACCAGCCGGCAGCUAAUGUAUUUCAUGAUUAAAUGACUAGAGUUCUUUUUUGUCUUCAAGUACUGCUCCACGAUUGGCAACAGAGGAUUGAGCAUCA", "CATEGORY LABEL": "YES"}

INPUT: API: query returns whether the binder falls strictly under 1 enrichment R in binding signal. Query: 96635784_96638769_164_5pUTR_ENSMUSG00000020876_ENSMUST00000107661|mouse|control|control (ssRNA) RNA: GGGAGUUCUACAGUCCGACGAUCCCACAAGCCCAUGGGAAGGGCACAUAGGUGUUCGAGGAAGCUCUUCCGCCUGACAGAAAACCUGUCCCGUCCAUCAAGCAGCUGUUCUCAUUUUUCAGUCGGUAACCCACUCCUUUCACCCAACAGAGGAUUGAGCAUCA
OUTPUT: NO

Values from paper PMC12136788
